The following molecules are shown together with reported Genotoxicity test, Without S9 rat liver extract, Rtkn, 10 values.
- System: Rtkn-GFP
- test: ToxTracker genotoxicity assay, Rtkn-GFP reporter induction
- experimental-conditions: GFP induction vs vehicle at 10% cytotoxicity; 24 h exposure, no S9
metric: Genotoxicity test, Without S9 rat liver extract, Rtkn, 10 (fold)

molecule	recorded-value
COCCOCCOCCOCCOCCOCCOCCOCCOCCOCCOCCOCCOCCOCC(CN1CC1C)OC(=O)NCCCCCCn1c(=O)n(CCCCCCNC(=O)OC(COCCOCCOCCOCCOCCOCCOCCOCCOCCOCCOCCOCCOCCOC)CN2CC2C)c(=O)n(CCCCCCNC(=O)OC(COCCOCCOCCOCCOCCOCCOCCOCCOCCOCCOCCOCCOCCOC)CN2CC2C)c1=O (stereo not drawn) [Ex. 29]	1.0
CC(CN1CC1C)OC(=O)NCCCCCC/N=c1\oc(=O)n(CCCCCCNC(=O)OC(C)CN2CC2C)c(=O)n1CCCCCCNC(=O)OC(C)CN1CC1C (stereo not drawn) [Ex. 2]	1.1
CCCCOCC(CN1CC1C)OC(=O)NCCCCCCNC(=O)OC(COCCCC)CN1CC1C (stereo not drawn) [Comp. Ex. 10, reference compound]	1.2
CCC(CN1CC1C)OC(=O)NCCCCCCn1c(=O)n(CCCCCCNC(=O)OC(CC)CN2CC2C)c(=O)n(CCCCCCNC(=O)OC(CC)CN2CC2C)c1=O (stereo not drawn) [Ex. 7]	1.1
CC(CN1CC1C)OC(=O)NC1CCC(CC2CCC(NC(=O)OC(C)CN3CC3C)CC2)CC1 (stereo not drawn) [Comp. Ex. 9, reference compound]	1.5
CC(CN1CC1C)OC(=O)NCCCCCCNC(=O)OC(C)CN1CC1C (stereo not drawn) [Comp. Ex. 6, reference compound]	2.1
